Measured TGI accompanies every entry in the list below.
System: HCT-15 colon
protocol-description: NCI tumour cell line growth inhibition, 48 h
measured-attribute: TGI

* COC(=O)c1cc(C)ccc1/C=C1\Cc2cccc(C)c2C1=O | > 100 µM
* CN1CCN(C(=S)N(C(=O)c2ccco2)C2CCCCC2)CC1 | > 100 µM
* COC(=O)CCc1ccc2c(c1)[C@H](C(=O)OC)[C@@H](c1ccc(O)cc1)O2 | > 100 µM
* CN(C(=O)CCC(=O)O)c1ccccc1C(=O)O | > 100 µM

---

Measured TGI accompanies every entry in the list below.
Test system: HOP-18 NSCLC
protocol-description: NCI tumour cell line growth inhibition, 48 h
measured-attribute: TGI

* C[Si](C)(c1ccccc1)C1CC(=O)CC(=O)C1 | > 100 µM
* CC12OC3(C)OC(=O)C(c4ccccc4)(O1)C3(C)O2 (stereo not drawn) | > 100 µM
* Cc1nc2sccn2c1C(=O)N/N=C1\SCC(=O)N1C | > 100 µM

---

System: NCI-H522 lung
protocol-description: NCI tumour cell line growth inhibition, 48 h
measured-attribute: TGI

- CCc1cccc(C)c1NC(=O)CC(=O)NNC(N)=S: > 100 µM
- S=C(Nc1ccccc1)Nc1ccccc1SC(/C=C/NNC1=NC(c2ccccc2)C(c2ccccc2)=NN1)c1ccccc1 (centres undefined): > 100 µM
- Nc1ccc(I)cn1: > 100 µM
- C/C=C/[C@@H](C(=O)OC)N1C(=O)c2ccccc2[C@H]1O: > 100 µM
- OCCCNCc1ccncc1: > 100 µM
- C=C1C(NC)CCC23CC24CCC2(C)C(C(C)=O)C(O)CC2(C)C4CCC13 (centres undefined): > 100 µM
- CCCNc1[nH]c(C(=O)c2ccccc2)c(N)c1C(=S)Nc1ccccc1: > 100 µM
- CCOP(=O)(OCC)/C(C#N)=C\c1ccc(OC(C)=O)cc1: > 100 µM
- O=Cc1cn(Cc2ccc(Cl)cc2)c2ccccc12: > 100 µM
- COC(=O)C(Cc1ccc2c(c1)CCCC2)Cc1cc2c(cc1C(O)OC)CCC2 (centres undefined): > 100 µM
- COc1cccc(N=Cc2cc(OC)c(OC)c(OC)c2)c1: > 100 µM
- ClC1=C(Cl)C(Cl)(Cl)SS1: > 6.85 µM
- COc1cc([C@@H]2C3C(=O)c4ccccc4C3[C@@H](c3cc(OC)c(OC)c(OC)c3)C23Cc2ccccc2C3=O)cc(OC)c1OC (some centres undefined): > 100 µM
- O=C(O)CCCNS(=O)(=O)c1ccccc1: > 100 µM
- COC(=O)CCc1ccc2c(c1)[C@H](C(=O)OC)[C@@H](c1ccc(O)cc1)O2: > 100 µM
- CC(=O)c1c2c(cc3c1CC1(C3)Cc3cc4c(c(C(=O)O)c3C1)CCCC4)CCCC2 (centres undefined) (tested in a mixture with another compound): > 100 µM
- COC(=O)C1=C(C(=O)OC)C2(CCCCCC2=O)OC1=O (centres undefined): > 100 µM
- COC(=O)C1=C(C)C(=O)[C@H]2C(C(=O)OC)CCCC[C@@H]12 (some centres undefined): > 100 µM
- CCCNC(=S)N=Nc1c(O)[nH]c2ccccc12: > 100 µM
- CC1=NN(C(=O)CC(=O)Nc2ccccc2)C(=O)C1N=Nc1ccc(C(=O)O)cc1 (centres undefined): > 100 µM
- CC1CC(=O)C2CC(CO)=CCCC2C1(C)CC/C(=C/CO)CO (centres undefined): > 100 µM
- CCCCOC(=O)C(=O)C(CC(CC)C(=O)c1ccccc1)C(=O)C=C(C)C (centres undefined): > 100 µM
- CC(CC(=O)O)(CC(=O)O)c1ccccc1: > 100 µM
- N#Cc1nc(C(O)c2ccccc2)oc1N (centres undefined): > 100 µM

---

Measured TGI accompanies every entry in the list below.
Test system: UO-31 renal
protocol-description: NCI tumour cell line growth inhibition, 48 h
measured-attribute: TGI

* O=C(CCc1ccc(O)c(O)c1)OCCc1ccccc1 | > 100 µM
* NC(=O)NN/C=C(/C=Nc1ccccc1)[N+](=O)[O-] | > 100 µM
* Cc1cc(O)c(/C=N/c2nc(-c3ccc([N+](=O)[O-])cc3)cs2)c(=O)o1 | > 100 µM
* CC(=O)NC(CC(C)C)C(=O)NC(CC(C)C)C(=O)NC(C=O)CCCN=C(N)N (centres undefined) | > 100 µM
* c1ccc2c3ccn4ccc5c6ccccc6[nH]c5c4c-3nc2c1 | 2.71 µM
* CC(=O)OCCOCn1c2c(c(=O)[nH]c1=O)CCC2 | > 100 µM
* CC1(C)C2CCC13C(=O)C1OC3(C2)C2C(=O)N(c3ccccc3)C(=O)C12 (centres undefined) | > 100 µM
* CCCCCCCC(=O)SCC/C=C/[C@@H]1CC(=O)NCc2cccc(n2)CN(Cc2ccc3ccccc3c2)CC(=O)N[C@@H](C(C)C)C(=O)O1 | > 100 µM
* CC(=O)N1C(Nc2cnc3ccccc3c2)CCN1c1ccccc1 (centres undefined) | > 10 µM
* O=C(c1cccs1)N(C(=S)N1CCN(c2ccccc2)CC1)C1CCCCC1 | > 100 µM
* CCOC(=O)c1ccc(NC(=O)O/N=C(/Cl)CC)cc1 | 31.4 µM
* Cc1ccc(S(=O)(=O)NC(C(=O)O)C(C)C)cc1 (centres undefined) | > 100 µM
* CCc1cccc(CC)c1NC(=O)C(C#N)C1=C(Cl)C(=O)c2ccccc2C1=O (centres undefined) | 24.3 µM
* COc1nc(Cl)nc(Cl)c1Cl (tested in a mixture with another compound) | 1.94 µM

---

Measured GI50 accompanies every entry in the list below.
System: KM12 colon
protocol-description: NCI tumour cell line growth inhibition, 48 h
measured-attribute: GI50

• O=S(=O)(Nc1ccc(Cl)cc1)c1ccc(-c2cnc(C3CC3)o2)cc1 = 0.431 µM
• COc1ccc2nc3ccccc3c(NCc3ccc(Cl)cc3)c2c1 = 3.08 µM
• Nn1c2c(c3ccccc3c1=O)C(=O)c1ccccc1-2 = > 50 µM
• CC(C)OC(=O)c1cc(NS(=O)(=O)c2ccc3ccccc3c2)cc(C(=O)OC(C)C)c1 = 32.3 µM
• ClCCn1cnc2c(SCc3ccccc3Cl)ncnc21 = 0.789 µM

---

System: MCF7 breast
protocol-description: NCI tumour cell line growth inhibition, 48 h
Measured TGI accompanies every entry in the list below.
measured-attribute: TGI (µM)

- Cc1nn(CCO)c(C)c1N=[N+]([O-])c1c(C)nn(CCO)c1C: 8.36
- Oc1cccc(-c2nc(-c3n[nH]c(=S)n3-c3ccccc3)cc3c2[nH]c2ccccc23)c1: 13.6
- C=C1C(=O)O[C@H]2[C@H]1CC/C(COC(=O)/C=C\C(=O)NCc1ccc(Cn3c(=O)sn(CCCI)c3=O)cc1)=C\CC[C@@]1(C)O[C@@H]21: 1.09
- O=C(N/N=C(\CN1CCN(c2cc3[nH]cc(C(=O)O)c(=O)c3cc2F)CC1)c1ccc(Cl)cc1)c1ccncc1: 66.9
- CSC(=NC#N)S/C=C/C(=O)c1ccc(Cl)cc1: 79.3
- C[n+]1c2ccccc2c(Nc2ccc(N3CCCCC3)cc2)c2[nH]c3ccccc3c21: 0.524
- OCc1ccc(N(Cc2ccc(F)cc2)CC2CC2)cc1Cl: 12.6

---

Test system: SR leukemia
protocol-description: NCI tumour cell line growth inhibition, 48 h
// label = 1 (yes) if TGI is not less than 60 µM, otherwise 0 (no)

• NCCCN1CCN(c2ccccc2)CC1 = 1 (yes)
• C[CH2][Pb]([CH2]C)([CH2]C)[O]C(=O)COc1ccccc1 = 0 (no)
• Cc1nn(CCO)c(C)c1N=[N+]([O-])c1c(C)nn(CCO)c1C = 0 (no)
• COc1ccc(Oc2ccc3cc4c(cc3c2O)OCO4)c2cc(C)oc12 = 1 (yes)
• Cc1cc([N+](=O)[O-])ccc1Sc1c2ccccc2nc2ccccc12 = 1 (yes)
• COc1cc2c[n+](C)c3c4cc(OC)c(OC)cc4c(OCc4ccccc4)cc3c2cc1OC = 1 (yes)
• [N-]=[N+]=Nc1c(N2CCOCC2)c(Cl)nc2ccccc12 = 1 (yes)
• CCOC(=O)N1Cc2ccoc2C1 = 1 (yes)
• CC1(O)CCC(C(C)(C)O)CC1 (stereo not given) = 1 (yes)
• O=C(N/N=C(\CN1CCN(c2cc3[nH]cc(C(=O)O)c(=O)c3cc2F)CC1)c1ccc(Cl)cc1)c1ccncc1 = 0 (no)
• O=C(N/N=C/c1cc(Cl)cc(Cl)c1[O-])c1ccccc1O.O=C(N/N=C/c1cc(Cl)cc(Cl)c1[O-])c1ccccc1O.[Cl-].[Fe+3] = 0 (no)
• C=CCc1cccc2cc(C(N)=O)c(=N)oc12 = 1 (yes)
• C=CCOC(=O)C[C@H](NC(=O)[C@H](Cc1ccc(O)cc1)NCC(F)(F)F)C(=O)OCC=C = 1 (yes)
• Cc1ccc(S(=O)(=O)N(CCN2C(=O)c3ccccc3C2=O)c2cc3c4c(c2)Oc2cc(N(CCN5C(=O)c6ccccc6C5=O)S(=O)(=O)c5ccc(C)cc5)cc5c2C4(C)c2c(cc(N(CCN4C(=O)c6ccccc6C4=O)S(=O)(=O)c4ccc(C)cc4)cc2O5)O3)cc1 = 1 (yes)
